Entry source: ChEMBL document CHEMBL1671861

tested on: Human immunodeficiency virus 1; assay: Antiretroviral activity against Human immunodeficiency virus 1 NL4.3 infected in human MT4 cells assessed as inhibition of virus-induced cytopathic effect by MTT assay; format: functional, organism-based; conditions: Human immunodeficiency virus 1, NL4.3, MT4
REPORTED_PROPERTY: EC50 (nM)
One number for each entry, in nM.

Hey, can you go through the list below and give me EC50 for every item?
1. COc1cccc2c1c(C(=O)/C=C(\O)C(=O)O)cn2Cc1ccc(F)cc1
2. Cc1cn([C@H]2C[C@H](N=[N+]=[N-])[C@@H](CO)O2)c(=O)[nH]c1=O
3. Cc1c(O)cccc1C(=O)N[C@@H](CSc1ccccc1)[C@H](O)CN1C[C@H]2CCCC[C@H]2C[C@H]1C(=O)NC(C)(C)C
4. O=C(O)C(=O)CC(=O)c1cc(OCc2ccccc2)cc(OCc2ccccc2)c1

[730, 21, 23, 24500]
